Test system: Staphylococcus aureus
Assay: Antibacterial activity against methicillin-resistant Staphylococcus aureus isolate 3 after 16 hrs by agar dilution method
Type: functional
Conditions: isolate 3, 16 h
Binarize MIC at 8 µg/mL; below is y, at or above is n.

{"columns": ["MOLECULE", "TGT", "ANSWER LABEL"],
 "data": [
  ["Cc1cc(C)cc(C2=C[C@]34C[C@@H]5C[C@H](O[C@@]5(C)C3)[C@H]4[C@](C)(CCC(=O)Nc3c(O)ccc(C(=O)O)c3O)C2=O)c1", "Staphylococcus aureus", "y"],
  ["Cc1ccccc1C1=C[C@]23C[C@@H]4C[C@H](O[C@@]4(C)C2)[C@H]3[C@](C)(CCC(=O)Nc2c(O)ccc(C(=O)O)c2O)C1=O", "Staphylococcus aureus", "n"],
  ["CCCCCc1ccc(C2=C[C@]34C[C@@H]5C[C@H](O[C@@]5(C)C3)[C@H]4[C@](C)(CCC(=O)Nc3c(O)ccc(C(=O)O)c3O)C2=O)cc1", "Staphylococcus aureus", "y"],
  ["C[C@]12C[C@@]34C=C(c5ccc(Br)cc5)C(=O)[C@@](C)(CCC(=O)Nc5c(O)ccc(C(=O)O)c5O)[C@@H]3[C@H](C[C@H]1C4)O2", "Staphylococcus aureus", "y"],
  ["C[C@]12C[C@@]34C=C(c5ccccc5)C(=O)[C@@](C)(CCC(=O)Nc5c(O)ccc(C(=O)O)c5O)[C@@H]3[C@H](C[C@H]1C4)O2", "Staphylococcus aureus", "n"],
  ["C[C@]12C[C@@]34C=C(c5cccc(O)c5)C(=O)[C@@](C)(CCC(=O)Nc5c(O)ccc(C(=O)O)c5O)[C@@H]3[C@H](C[C@H]1C4)O2", "Staphylococcus aureus", "n"],
  ["CC(=O)NC[C@H]1CN(c2ccc(N3CCOCC3)c(F)c2)C(=O)O1 [LINEZOLID]", "Staphylococcus aureus", "y"],
  ["COc1ccccc1C1=C[C@]23C[C@@H]4C[C@H](O[C@@]4(C)C2)[C@H]3[C@](C)(CCC(=O)Nc2c(O)ccc(C(=O)O)c2O)C1=O", "Staphylococcus aureus", "n"],
  ["C[C@]12C[C@@]34C=C(c5cc6cccc7ccc8cccc5c8c76)C(=O)[C@@](C)(CCC(=O)Nc5c(O)ccc(C(=O)O)c5O)[C@@H]3[C@H](C[C@H]1C4)O2", "Staphylococcus aureus", "y"],
  ["C[C@]12C[C@@]34C=CC(=O)[C@@](C)(CCC(=O)Nc5c(O)ccc(C(=O)O)c5O)[C@@H]3[C@H](C[C@H]1C4)O2", "Staphylococcus aureus", "y"],
  ["C[C@]12C[C@@]34C=C(c5cc6ccccc6c6ccccc56)C(=O)[C@@](C)(CCC(=O)Nc5c(O)ccc(C(=O)O)c5O)[C@@H]3[C@H](C[C@H]1C4)O2", "Staphylococcus aureus", "y"],
  ["C[C@]12C[C@@]34C=C(c5ccc(C=O)cc5)C(=O)[C@@](C)(CCC(=O)Nc5c(O)ccc(C(=O)O)c5O)[C@@H]3[C@H](C[C@H]1C4)O2", "Staphylococcus aureus", "n"]
]}
